Origin of measurements: the supplement of paper PMC10307832

system: HCC-78; experiment: relative viability (nuclei count vs DMSO), 5 days (fraction); higher = more cells survive; details: first compound 8 µM
Parameter Measured: relative viability

Molecule	Numeric Readout
O=c1cc(-c2cccc3c2Sc2ccccc2S3)oc(N2CCOCC2)c1 + CC(=O)Nc1cccc(-n2c(=O)n(C3CC3)c(=O)c3c(Nc4ccc(I)cc4F)n(C)c(=O)c(C)c32)c1 [Trametinib] (partner 0.02 µM)	0.544
O=c1cc(-c2cccc3c2Sc2ccccc2S3)oc(N2CCOCC2)c1 + O=C(c1cc(Cc2n[nH]c(=O)c3ccccc23)ccc1F)N1CCN(C(=O)C2CC2)CC1 [Olaparib] (partner 8 µM)	0.734
O=c1cc(-c2cccc3c2Sc2ccccc2S3)oc(N2CCOCC2)c1 + COc1cccc2cc(-c3nc([C@H]4CC[C@H](C(=O)O)CC4)n4ncnc(N)c34)[nH]c12 [OSI-027] (partner 0.5 µM)	0.339
O=c1cc(-c2cccc3c2Sc2ccccc2S3)oc(N2CCOCC2)c1 + O=C(CCCCCCC(=O)Nc1ccccc1)NO [Vorinostat] (partner 1 µM)	0.474
O=c1cc(-c2cccc3c2Sc2ccccc2S3)oc(N2CCOCC2)c1 + N=C(N)NC(=N)NCCc1ccccc1 [Phenformin] (partner 250 µM)	0.667
O=c1cc(-c2cccc3c2Sc2ccccc2S3)oc(N2CCOCC2)c1 + CC1(C)CCC(c2ccc(Cl)cc2)=C(CN2CCN(c3ccc(C(=O)NS(=O)(=O)c4ccc(N[C@H](CCN5CCOCC5)CSc5ccccc5)c(S(=O)(=O)C(F)(F)F)c4)cc3)CC2)C1 [Navitoclax] (partner 0.5 µM)	0.816
O=c1cc(-c2cccc3c2Sc2ccccc2S3)oc(N2CCOCC2)c1 + CS(=O)(=O)CCNCc1ccc(-c2ccc3ncnc(Nc4ccc(OCc5cccc(F)c5)c(Cl)c4)c3c2)o1 [Lapatinib] (partner 2 µM)	0.901
O=c1cc(-c2cccc3c2Sc2ccccc2S3)oc(N2CCOCC2)c1 + Cc1nc(NC(=O)N2CCC[C@H]2C(N)=O)sc1-c1ccnc(C(C)(C)C(F)(F)F)c1 [Alpelisib] (partner 2 µM)	0.339
O=c1cc(-c2cccc3c2Sc2ccccc2S3)oc(N2CCOCC2)c1 + COc1cc2c(Oc3ccc(NC(=O)C4(C(=O)Nc5ccc(F)cc5)CC4)cc3F)ccnc2cc1OCCCN1CCOCC1 [Foretinib] (partner 0.25 µM)	0.498

###

system: NCI-H1703; test: relative viability (nuclei count vs DMSO), 5 days (fraction); higher = more cells survive; details: first compound 1 µM
Catalogue of relative viability values

Compound	Subject Of Test	relative viability
CCN(CC)CCCCNc1ncc2cc(-c3cc(OC)cc(OC)c3)c(NC(=O)NC(C)(C)C)nc2n1 + CS(=O)(=O)N1CCN(Cc2cc3nc(-c4cccc5[nH]ncc45)nc(N4CCOCC4)c3s2)CC1 [Pictilisib] (partner 1 µM)	NCI-H1703	0.252
CCN(CC)CCCCNc1ncc2cc(-c3cc(OC)cc(OC)c3)c(NC(=O)NC(C)(C)C)nc2n1 + CS(=O)(=O)CCNCc1ccc(-c2ccc3ncnc(Nc4ccc(OCc5cccc(F)c5)c(Cl)c4)c3c2)o1 [Lapatinib] (partner 2 µM)	NCI-H1703	0.774
O=c1cc(N2CCOCC2)oc2c(-c3cccc4c3sc3ccccc34)cccc12 + CC(C)C[C@H](NC(=O)[C@H](Cc1ccccc1)NC(=O)c1cnccn1)B(O)O [Bortezomib] (partner 0.002 µM)	NCI-H1703	0.296
O=c1cc(N2CCOCC2)oc2c(-c3cccc4c3sc3ccccc34)cccc12 + CS(=O)(=O)N1CCN(Cc2cc3nc(-c4cccc5[nH]ncc45)nc(N4CCOCC4)c3s2)CC1 [Pictilisib] (partner 1 µM)	NCI-H1703	0.252
O=c1cc(N2CCOCC2)oc2c(-c3cccc4c3sc3ccccc34)cccc12 + CC1(C)CCC(c2ccc(Cl)cc2)=C(CN2CCN(c3ccc(C(=O)NS(=O)(=O)c4ccc(N[C@H](CCN5CCOCC5)CSc5ccccc5)c(S(=O)(=O)C(F)(F)F)c4)cc3)CC2)C1 [Navitoclax] (partner 0.5 µM)	NCI-H1703	1.01
CCN(CC)CCCCNc1ncc2cc(-c3cc(OC)cc(OC)c3)c(NC(=O)NC(C)(C)C)nc2n1 + Cc1nc(NC(=O)N2CCC[C@H]2C(N)=O)sc1-c1ccnc(C(C)(C)C(F)(F)F)c1 [Alpelisib] (partner 2 µM)	NCI-H1703	0.292
CCN(CC)CCCCNc1ncc2cc(-c3cc(OC)cc(OC)c3)c(NC(=O)NC(C)(C)C)nc2n1 + CC(C)C[C@H](NC(=O)[C@H](Cc1ccccc1)NC(=O)c1cnccn1)B(O)O [Bortezomib] (partner 0.002 µM)	NCI-H1703	0.236
O=c1cc(N2CCOCC2)oc2c(-c3cccc4c3sc3ccccc34)cccc12 + NC(=O)Nc1cc(-c2cccc(F)c2)sc1C(=O)N[C@H]1CCCNC1 [AZD7762] (partner 0.2 µM)	NCI-H1703	0.131

###

test system: LC-2-ad; test: relative viability (nuclei count vs DMSO), 5 days (fraction); higher = more cells survive; details: first compound 0.2 µM
Catalogue of relative viability values

Compound	relative viability
COCC1(CO)C(=O)C2CCN1CC2 (stereo not given) [PRIMA-1MET] + O=C(c1cc(Cc2n[nH]c(=O)c3ccccc23)ccc1F)N1CCN(C(=O)C2CC2)CC1 [Olaparib] (partner 8 µM)	0.751
COCC1(CO)C(=O)C2CCN1CC2 (stereo not given) [PRIMA-1MET] + NC(=O)Nc1cc(-c2cccc(F)c2)sc1C(=O)N[C@H]1CCCNC1 [AZD7762] (partner 0.2 µM)	0.968
COCC1(CO)C(=O)C2CCN1CC2 (stereo not given) [PRIMA-1MET] + C[C@]1(O)C[C@@H](c2nc(-c3ccc4ccc(-c5ccccc5)nc4c3)c3c(N)nccn32)C1 [Linsitinib] (partner 1 µM)	0.967
COCC1(CO)C(=O)C2CCN1CC2 (stereo not given) [PRIMA-1MET] + CC(=O)Nc1cccc(-n2c(=O)n(C3CC3)c(=O)c3c(Nc4ccc(I)cc4F)n(C)c(=O)c(C)c32)c1 [Trametinib] (partner 0.02 µM)	0.82
COCC1(CO)C(=O)C2CCN1CC2 (stereo not given) [PRIMA-1MET] + COc1cc2c(Oc3ccc(NC(=O)C4(C(=O)Nc5ccc(F)cc5)CC4)cc3F)ccnc2cc1OCCCN1CCOCC1 [Foretinib] (partner 0.25 µM)	0.987

###

Catalogue of relative viability values
tested on: NCI-H520; test: relative viability (nuclei count vs DMSO), 5 days (fraction); higher = more cells survive; details: first compound 2 µM

Compound	Subject Of Test	relative viability
COCC1(CO)C(=O)C2CCN1CC2 (stereo not given) [PRIMA-1MET] + COc1cccc2cc(-c3nc([C@H]4CC[C@H](C(=O)O)CC4)n4ncnc(N)c34)[nH]c12 [OSI-027] (partner 0.5 µM)	NCI-H520	0.169
COCC1(CO)C(=O)C2CCN1CC2 (stereo not given) [PRIMA-1MET] + COc1cc2c(Oc3ccc(NC(=O)C4(C(=O)Nc5ccc(F)cc5)CC4)cc3F)ccnc2cc1OCCCN1CCOCC1 [Foretinib] (partner 0.25 µM)	NCI-H520	0.669
COCC1(CO)C(=O)C2CCN1CC2 (stereo not given) [PRIMA-1MET] + CC(=O)c1c(C)c2cnc(Nc3ccc(N4CCNCC4)cn3)nc2n(C2CCCC2)c1=O [Palbociclib] (partner 0.5 µM)	NCI-H520	0.202
COCC1(CO)C(=O)C2CCN1CC2 (stereo not given) [PRIMA-1MET] + Nc1ncn([C@H]2C[C@H](O)[C@@H](CO)O2)c(=O)n1 [Decitabine] (partner 2 µM)	NCI-H520	0.413
COCC1(CO)C(=O)C2CCN1CC2 (stereo not given) [PRIMA-1MET] + Cc1nc(Nc2ncc(C(=O)Nc3c(C)cccc3Cl)s2)cc(N2CCN(CCO)CC2)n1 [Dasatinib] (partner 0.075 µM)	NCI-H520	0.258

###

Catalogue of relative viability values
tested on: NCI-H1975; assay: relative viability (nuclei count vs DMSO), 5 days (fraction); higher = more cells survive; details: first compound 1 µM

Compound	Subject Of Test	relative viability
CCN(CC)CCCCNc1ncc2cc(-c3cc(OC)cc(OC)c3)c(NC(=O)NC(C)(C)C)nc2n1 + CC(C)C[C@H](NC(=O)[C@H](Cc1ccccc1)NC(=O)c1cnccn1)B(O)O [Bortezomib] (partner 0.002 µM)	NCI-H1975	0.365
O=c1cc(N2CCOCC2)oc2c(-c3cccc4c3sc3ccccc34)cccc12 + N=C(N)NC(=N)NCCc1ccccc1 [Phenformin] (partner 250 µM)	NCI-H1975	0.418
CCN(CC)CCCCNc1ncc2cc(-c3cc(OC)cc(OC)c3)c(NC(=O)NC(C)(C)C)nc2n1 + Cc1nc(NC(=O)N2CCC[C@H]2C(N)=O)sc1-c1ccnc(C(C)(C)C(F)(F)F)c1 [Alpelisib] (partner 2 µM)	NCI-H1975	0.451
O=c1cc(N2CCOCC2)oc2c(-c3cccc4c3sc3ccccc34)cccc12 + O=C(c1cc(Cc2n[nH]c(=O)c3ccccc23)ccc1F)N1CCN(C(=O)C2CC2)CC1 [Olaparib] (partner 8 µM)	NCI-H1975	0.809
CCN(CC)CCCCNc1ncc2cc(-c3cc(OC)cc(OC)c3)c(NC(=O)NC(C)(C)C)nc2n1 + Nc1nc2[nH]cc(CCc3ccc(C(=O)N[C@@H](CCC(=O)O)C(=O)O)cc3)c2c(=O)[nH]1 [Pemetrexed] (partner 0.2 µM)	NCI-H1975	0.283
